# System: AMO-1 (Plasma Cell Myeloma)
# Test details: Bliss excess, mean over the matrix (fraction); higher = more synergy
Listing of entries alongside the reported Bliss excess.

Quick note, Bliss excess for Cc1cc2ncnn2cc1Nc1ncc2c(n1)n(C1CCOCC1)c(=O)n2C [AZD7648] + CN(C)CCCOc1ccc(-c2ccc3ncc4c(c3c2)n(C2CCOCC2)c(=O)n4C)cn1 [AZD0156] (first compound max 10 µM, 7x7, partner max 1 µM) landed at 0.0135

* * *

Listing of entries alongside the reported Bliss excess.
# Test system: UACC-62 (Melanoma)
# Test details: Bliss excess, mean over the matrix (fraction); higher = more synergy
Keep the answer to the number alone.

Quick note, Bliss excess for CN(CCO)CC[C@H](CSc1ccccc1)Nc1ccc(S(=O)(=O)NC(=O)c2ccc(N3CCC([C@@H](O)c4ccccc4-c4ccc(Cl)cc4)CC3)cc2)cc1S(=O)(=O)C(F)(F)F [AZD4320] + C[C@@H]1COCCN1C2=NC(=NC(=C2)C3(CC3)[S@](=N)(=O)C)C4=C5C=CNC5=NC=C4 [AZD6738] (first compound max 1 µM, 7x7, partner max 10 µM) landed at -0.0317

Quick note, Bliss excess for C[C@@H](Nc1cc(F)cc(F)c1)c1cc(C(=O)N(C)C)cc2c(=O)cc(N3CCOCC3)oc12 [AZD8186] + CC(=O)c1c(C)c2cnc(Nc3ccc(N4CCNCC4)cn3)nc2n(C2CCCC2)c1=O [Palbociclib] (first compound max 10 µM, 7x7, partner max 10 µM) landed at 0.0303

* * *

Listing of entries alongside the reported combination Emax.
# System: ACHN (Kidney Carcinoma)
# Test details: combination Emax (second highest fraction inhibited in the dose matrix, 72 h); higher = more inhibition; extreme values may be limits of the assay

Example cases with answers are listed next.
Compound	Measured metric	Recorded measurement
C[C@@H](Oc1cc(-c2cnn(C3CCNCC3)c2)cnc1N)c1c(Cl)ccc(F)c1Cl [Crizotinib] + CC1=C(C(=CC=C1)Cl)NC(=O)C2=CN=C(S2)NC3=CC(=NC(=N3)C)N4CCN(CC4)CCO [Dasatinib] (first compound max 10 µM, 7x7, partner max 2 µM)	combination Emax	0.756
COc1cccc(OCCCN)c1-c1cc(Nc2cnc(C#N)cn2)n[nH]1 [Prexasertib] + CN(C)CCCOc1ccc(-c2ccc3ncc4c(c3c2)n(C2CCOCC2)c(=O)n4C)cn1 [AZD0156] (first compound max 1 µM, 7x7, partner max 1 µM)	combination Emax	0.926
COc1cccc(OCCCN)c1-c1cc(Nc2cnc(C#N)cn2)n[nH]1 [Prexasertib] + C=CCn1c(=O)c2cnc(Nc3ccc(N4CCN(C)CC4)cc3)nc2n1-c1cccc(C(C)(C)O)n1 [AZD1775] (first compound max 1 µM, partner max 1 µM)	combination Emax	0.96

Please turn your attention to the following entry.
Field combination Emax (ACHN (Kidney Carcinoma)), entry NC1(C(=O)N[C@@H](CCO)c2ccc(Cl)cc2)CCN(c2ncnc3[nH]ccc23)CC1 [Capivasertib] + Cn1cnc2c(F)c(Nc3ccc(Br)cc3Cl)c(C(=O)NOCCO)cc21 [Selumetinib] (first compound max 10 µM, 7x7, partner max 10 µM) : 0.49

* * *

# Test system: JVM-3 (B-Cell Non-Hodgkin's Lymphoma)
# Test details: Bliss excess, mean over the matrix (fraction); higher = more synergy
Measured metric: Bliss excess
Keep the answer to the number alone.

Compound	Tested target	Bliss excess
CN(CCO)CC[C@H](CSc1ccccc1)Nc1ccc(S(=O)(=O)NC(=O)c2ccc(N3CCC([C@@H](O)c4ccccc4-c4ccc(Cl)cc4)CC3)cc2)cc1S(=O)(=O)C(F)(F)F [AZD4320] + C=CCn1c(=O)c2cnc(Nc3ccc(N4CCN(C)CC4)cc3)nc2n1-c1cccc(C(C)(C)O)n1 [AZD1775] (first compound max 1 µM, partner max 1 µM)	JVM-3 (B-Cell Non-Hodgkin's Lymphoma)	-0.101

Please turn your attention to the following entry.
Quick note, Bliss excess for COc1cccc(OCCCN)c1-c1cc(Nc2cnc(C#N)cn2)n[nH]1 [Prexasertib] + Cc1cc2ncnn2cc1Nc1ncc2c(n1)n(C1CCOCC1)c(=O)n2C [AZD7648] (first compound max 1 µM, 7x7, partner max 10 µM) landed at -0.027
